# Test system: NIH3T3
# ASSAY_COMMENT: Cytotoxic Profiling of Annotated Libraries Using Quantitative High-Throughput Screening (AID 1296008); also: % is scaled to controls: 0 for no effect and ±100 for the full control effect
# CONDITION_DETAILS: Five cell lines viability, CellTiter-Glo ATP luminescence, 48-72 h; stronger effect = lower value
Results filed as inconclusive are left out.
MEASUREMENT_LABEL: max response (%)
Report the figure in % without appending any unit label.

(Q) Field request: max response | item: CC1(C)CCCC2(C)C1C(OC(=O)/C=C/C=C/C=O)C=C1COC(=O)C12O (centres undefined)
(A) -7.98

(Q) Field request: max response | item: `CN(C)c1ccnc2sc3c(=O)n(N4CCCCCC4)cnc3c12`
(A) 4.09

(Q) Field request: max response | item: CC(=O)OC1CC(C)C2(CCC3(CC(=O)OC3O)O2)C2(C)CCCC(C)(C)C12 (centres undefined)
(A) 0.0681

(Q) Field request: max response | item: CC(=O)O[C@@H]1CC2C(/C=C(\C)C(=O)[C@@]3(O)C[C@@H](C)[C@H](OC(=O)c4ccccc4)C3/C=C/1C)C2(C)C (some centres undefined)
(A) 1.35

(Q) Field request: max response | item: Fc1ccc(N2CCN(CCC3OCCc4ccccc43)CC2)cc1 (centres undefined)
(A) -0.639

As a next step, examine the compound that follows.
(Q) Field request: max response | item: `CC(C)C[C@@H](C(=O)N[C@@H](Cc1ccc(OCc2ccccc2)cc1)C(=O)NC(C)(C)C)N(C)Cc1ccc(C(C)(C)C)cc1`
(A) -5.54
